- MEASURED ON: T1, soluble KDR extracellular domain (ECD) (Calbiochem) (human, UniProt P35968 20-764)
- T1 construct: extracellular domain; Bought protein; also called KDR-ECD; VEGF Receptor 2 D1-7, Cat. #676490
- PROCEDURE TEXT: High Antigen ELISA, KDR coat 500 ng/mL, supernatant 1:75
# ELISA reading per entry
TEST READOUT: ELISA reading

binder="33C3 (antibody, V domains shown, Fully human mAb from XenoMouse hybridoma, tested as hybridoma supernatant) VH: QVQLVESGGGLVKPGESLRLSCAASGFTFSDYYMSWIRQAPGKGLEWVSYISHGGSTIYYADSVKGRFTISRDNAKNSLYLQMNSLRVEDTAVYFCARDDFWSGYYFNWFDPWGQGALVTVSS VL: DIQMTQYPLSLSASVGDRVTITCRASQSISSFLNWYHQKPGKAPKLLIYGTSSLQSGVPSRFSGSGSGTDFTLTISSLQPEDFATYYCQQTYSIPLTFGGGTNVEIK" test_readout="ELISA reading" result=4.96
binder="30D7 (antibody, V domains shown, Fully human mAb from XenoMouse hybridoma, tested as hybridoma supernatant) VH: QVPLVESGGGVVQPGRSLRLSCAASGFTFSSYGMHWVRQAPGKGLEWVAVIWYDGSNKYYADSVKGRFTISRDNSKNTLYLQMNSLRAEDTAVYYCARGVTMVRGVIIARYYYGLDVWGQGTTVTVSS VL: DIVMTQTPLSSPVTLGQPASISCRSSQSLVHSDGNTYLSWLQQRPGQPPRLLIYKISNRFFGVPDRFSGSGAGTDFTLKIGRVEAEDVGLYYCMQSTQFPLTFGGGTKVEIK" test_readout="ELISA reading" result=5.09
binder="29H3 (antibody, V domains shown, Fully human mAb from XenoMouse hybridoma, tested as hybridoma supernatant) VH: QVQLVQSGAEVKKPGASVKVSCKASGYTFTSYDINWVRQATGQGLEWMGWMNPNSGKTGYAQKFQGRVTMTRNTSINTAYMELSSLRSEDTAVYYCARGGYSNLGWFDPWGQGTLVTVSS VL: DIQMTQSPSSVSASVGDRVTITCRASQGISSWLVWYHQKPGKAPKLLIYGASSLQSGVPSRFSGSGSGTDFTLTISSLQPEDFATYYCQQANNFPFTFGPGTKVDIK" test_readout="ELISA reading" result=4.96
binder="30F6 (antibody, V domains shown, Fully human mAb from XenoMouse hybridoma, tested as hybridoma supernatant) VH: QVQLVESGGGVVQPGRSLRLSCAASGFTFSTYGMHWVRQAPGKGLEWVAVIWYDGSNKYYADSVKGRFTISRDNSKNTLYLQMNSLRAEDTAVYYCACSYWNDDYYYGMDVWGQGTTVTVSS VL: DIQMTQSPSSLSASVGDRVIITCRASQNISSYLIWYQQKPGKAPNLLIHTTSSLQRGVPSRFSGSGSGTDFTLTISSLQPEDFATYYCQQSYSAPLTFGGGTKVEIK" test_readout="ELISA reading" result=3.12
binder="33B1 (antibody, V domains shown, Fully human mAb from XenoMouse hybridoma, tested as hybridoma supernatant) VH: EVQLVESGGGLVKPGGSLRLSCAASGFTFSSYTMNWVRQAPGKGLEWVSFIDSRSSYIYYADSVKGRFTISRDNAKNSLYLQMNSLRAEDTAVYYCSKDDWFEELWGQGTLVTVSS VL: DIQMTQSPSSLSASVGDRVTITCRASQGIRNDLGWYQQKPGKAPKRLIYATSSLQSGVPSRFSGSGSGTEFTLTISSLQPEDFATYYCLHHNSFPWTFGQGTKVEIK" test_readout="ELISA reading" result=2.32
